Measured values drawn from patent US8748435B2 for this set.

- EXPERIMENTAL SYSTEM: rat GPR4 (Rattus norvegicus (Rat), UniProt Q4KLH9)
- Sequence (Q4KLH9 whole entry): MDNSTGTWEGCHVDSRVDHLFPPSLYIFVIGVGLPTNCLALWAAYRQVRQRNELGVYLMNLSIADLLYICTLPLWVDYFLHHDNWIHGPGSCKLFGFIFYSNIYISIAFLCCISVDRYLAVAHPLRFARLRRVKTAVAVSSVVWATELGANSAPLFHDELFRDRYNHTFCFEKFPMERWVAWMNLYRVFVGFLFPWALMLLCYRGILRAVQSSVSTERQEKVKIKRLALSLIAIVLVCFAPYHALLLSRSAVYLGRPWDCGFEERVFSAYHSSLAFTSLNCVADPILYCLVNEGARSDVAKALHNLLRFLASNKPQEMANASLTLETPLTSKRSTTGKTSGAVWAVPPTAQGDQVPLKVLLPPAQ
- ASSAY NAME: Rat GPR4 cAMP assay
- TEST PARAMETERS: read-out: r cAMP IC50
pIC50: −log10 of the molar value. Where a name gives a salt, the structure may show the parent alone.
RESULT TYPE: pIC50

Below: 5 molecules and their reported pIC50.
* CCc1nn2c(C)cc(C)nc2c1Cc1ccc(OCC2CCNCC2)cc1 [Example 21, hydrochloride] | 6.31
* CCc1nn2c(C)cc(C)nc2c1Cc1ccc(/C=C/CC2(O)CNC2)cc1 | 6.00
* CCc1nn2c(C)cc(C)nc2c1Cc1ccc(/C=C/CN2CCN(C(=O)CN)CC2)cc1 [Example 11, dihydrochloride] | 5.55
* CCc1nn2c(C)cc(C)nc2c1Cc1ccc(/C=C/CN2CCN(C(=O)[C@H](CO)NC)CC2)cc1 | 6.20
* CCc1nn2c(C)cc(C)nc2c1Cc1ccc(OC[C@H]2CC[C@@H](NC(=O)[C@H]3NCC[C@H]3O)CC2)cc1 | 6.10

P: CCc1nn2c(C)cc(C)nc2c1Cc1ccc(OCCC2(O)CCNCC2)cc1
Q: CCc1nn2c(C)cc(C)nc2c1Cc1ccc(-n2cc(CN3CC(N)C3)cn2)cc1
R: CCc1nn2c(C)cc(C)nc2c1Cc1ccc(-c2nnc(C3CCN(C(=O)[C@H](CO)NC)CC3)o2)cc1 [Example 38, hydrochloride]
Prompt line: Hello, I need these entries ordered by pIC50, highest reading first. Thanks! Put the labels in the requested order and list them out.
Response line: Q, R, P
(Q: 6.37, R: 6.09, P: 5.68)

A: CCc1nn2c(C)cc(C)nc2c1Cc1ccc(OCCN2CCNCC2)cc1
B: CCc1nn2c(C)cc(C)nc2c1Cc1ccc(-n2cc(CN3CCC(N)CC3)cn2)cc1
Prompt line: Input pair: A , B . Output: entry with lower pIC50. Reply briefly: the label of your chosen item.
Response line: A
(A: 5.58, B: 6.30)

P: CCc1nn2c(C)cc(C)nc2c1Cc1ccc(-n2cc(CN3CCNCC3)nn2)cc1
Q: CCc1nn2c(C)cc(C)nc2c1Cc1ccc(OC[C@H]2CC[C@@H](N)CC2)cc1
R: CCc1nn2c(C)cc(C)nc2c1Cc1ccc(-n2cc(CN3CC(O)C3)cn2)cc1
S: CCc1nn2c(C)cc(C)nc2c1Cc1ccc(/C=C/CC2(O)CCNCC2)cc1
T: CCc1nn2c(C)cc(C)nc2c1Cc1ccc(/C=C/CN2CCC(c3nnnn3C)CC2)cc1 [Example 12, hydrochloride]
Prompt line: Hello, I need these entries ordered by pIC50, highest reading first. Thanks! Put the labels in the requested order and list them out.
Response line: T, S, P, Q, R
(T: 6.74, S: 6.47, P: 6.21, Q: 5.85, R: 5.64)

P: CCc1nn2c(C)cc(C)nc2c1Cc1ccc(/C=C/CC2(O)CCN(C[C@@H](O)CO)CC2)cc1
Q: CCc1nn2c(C)cc(C)nc2c1Cc1ccc(-n2cc(CN3CCN[C@@H](CO)C3)cn2)cc1
R: CCc1nn2c(C)cc(C)nc2c1Cc1ccc(-c2nnc([C@H]3CC[C@H](N)CC3)o2)cc1
Prompt line: Hello, I need these entries ordered by pIC50, highest reading first. Thanks! Put the labels in the requested order and list them out.
Response line: P, Q, R

###

pIC50: −log10 of the molar value. Structures can show the parent of a compound that is named as a salt.
In what follows, each item is paired with its pIC50 for Human H3 (Homo sapiens (Human), UniProt Q9Y5N1).

Below: 5 molecules and their reported pIC50.
• CCc1nn2c(C)cc(C)nc2c1Cc1ccc(/C=C/CN2CCN[C@H](COC)C2)cc1 = < 4.52
• CCc1nn2c(C)cc(C)nc2c1Cc1ccc(OCC2CCNCC2)cc1 [Example 21, hydrochloride] = 4.60
• CCc1nn2c(C)cc(C)nc2c1Cc1ccc(-n2cc(CC3(O)CCNCC3)nn2)cc1 = < 4.52
• CCc1nn2c(C)cc(C)nc2c1Cc1ccc(-n2cc(CN3CC(O)C3)cn2)cc1 = 4.70
• CCc1nn2c(C)cc(C)nc2c1Cc1ccc(-c2nnc(C3CCN(C(=O)[C@H](CO)NC)CC3)o2)cc1 [Example 38, hydrochloride] = < 4.52

Prompt line: Report pIC50 under test system Human H3 (Homo sapiens (Human), UniProt Q9Y5N1) for CCc1nn2c(C)cc(C)nc2c1Cc1ccc(OC[C@H]2CC[C@@H](NC(=O)[C@H]3NCC[C@H]3O)CC2)cc1 .
Response line: < 4.52

###

- EXPERIMENTAL SYSTEM: human GPR4 (Homo sapiens (Human))
- Sequence (P46093 whole entry): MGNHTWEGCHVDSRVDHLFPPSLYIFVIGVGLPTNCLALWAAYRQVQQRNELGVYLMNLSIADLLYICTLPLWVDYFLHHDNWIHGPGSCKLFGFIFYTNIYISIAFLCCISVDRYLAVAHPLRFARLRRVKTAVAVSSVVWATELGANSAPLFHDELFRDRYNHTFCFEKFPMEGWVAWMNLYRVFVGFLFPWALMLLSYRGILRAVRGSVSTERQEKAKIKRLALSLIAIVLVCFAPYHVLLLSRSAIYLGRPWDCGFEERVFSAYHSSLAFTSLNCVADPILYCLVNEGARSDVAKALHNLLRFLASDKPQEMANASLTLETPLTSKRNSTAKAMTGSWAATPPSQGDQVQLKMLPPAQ
- ASSAY NAME: Human GPR4 binding assay with additional human serum albumin (4% HSA)
- TEST PARAMETERS: binding assay with 4% HSA
Where a name gives a salt, the structure may show the parent alone.
RESULT TYPE: IC50 (nM)

Below: 5 molecules and their reported IC50.
* CCc1nn2c(C)cc(C)nc2c1Cc1ccc(/C=C/CN2CCN[C@@H](CN(C)C)C2)cc1 [Example 13, trihydrochloride] | 7
* CCc1nn2c(C)cc(C)nc2c1Cc1ccc(-n2cc(CN3CCNCC3)cn2)cc1 | 61
* CCc1nn2c(C)cc(C)nc2c1Cc1ccc(/C=C/CN2CCN(C(=O)[C@H](CO)NC)CC2)cc1 | 44
* CCc1nn2c(C)cc(C)nc2c1Cc1ccc(-c2nnc([C@H]3CC[C@H](N)CC3)o2)cc1 | 17
* CCc1nn2c(C)cc(C)nc2c1Cc1ccc(OCCC2(O)CCNCC2)cc1 | 63

a: CCc1nn2c(C)cc(C)nc2c1Cc1ccc(/C=C/CC2(O)CCN(C(=O)CNC)CC2)cc1 [Example 7, hydrochloride]
b: CCc1nn2c(C)cc(C)nc2c1Cc1ccc(OCC2CCN(C(=O)[C@H]3NCC[C@H]3O)CC2)cc1
Prompt line: So which one has the bigger IC50 here, a or b ? Reply briefly: the label of your chosen item.
Response line: a

###

- EXPERIMENTAL SYSTEM: rat GPR4 (Rattus norvegicus (Rat), UniProt Q4KLH9)
- ASSAY NAME: Rat GPR4 cAMP assay
- TEST PARAMETERS: read-out: r cAMP IC50
pIC50: −log10 of the molar value. Structures can show the parent of a compound that is named as a salt.
RESULT TYPE: pIC50

Below: 4 compounds and their reported pIC50.
* CCc1nn2c(C)cc(C)nc2c1Cc1ccc(/C=C/C2(O)CCNCC2)cc1 | 6.03
* CCc1nn2c(C)cc(C)nc2c1Cc1ccc(/C=C/CN2CCN(C(=O)[C@H]3NCC[C@H]3O)CC2)cc1 [Example 16, dihydrochloride] | 6.08
* CCc1nn2c(C)cc(C)nc2c1Cc1ccc(/C=C/CN2CCN[C@@H](C)C2)cc1 | 5.84
* CCc1nn2c(C)cc(C)nc2c1Cc1ccc(/C=C/CN2CCN[C@H](CO)C2)cc1 [Example 8, dihydrochloride] | 6.17

I: CCc1nn2c(C)cc(C)nc2c1Cc1ccc(/C=C/CN2CCNCC2)cc1
II: CCc1nn2c(C)cc(C)nc2c1Cc1ccc(/C=C/C(=O)N2CCNCC2)cc1 [Example 18, hydrochloride]
Prompt line: So which one has the bigger pIC50 here, I or II ? Reply briefly: the label of your chosen item.
Response line: I
